Reference for the values: patent US10280179B2

This section presents compounds with their documented IC50 values.
System: human neuroblastoma cell line SH-SY5Y
Assay: Inhibition of BSO-induced non-apoptotic cell death (Example B.1)
Assay type: cell-based
Conditions: SH-SY5Y cells, 50 μM BSO, 72 hours, read-out: SH-SY5Y/BSO IC50
Protocol: Inhibition of BSO-Induced Non-Apoptotic Cell Death by Compounds Disclosed Herein […] Compounds disclosed herein were evaluated for their ability to promote cell survival upon administration of a lethal dose of BSO to cell-culture medium. […] After incubation, cell survival was detected using the live/dead cell assay AquaBluer™ (MultiTarget Pharmaceuticals) and quantified using a fluorescence plate reader (excitation filter: 530-560 nm/emission filter: 590 nm) (SpectraMax M4; Molecular Devices). […]

Example entries and their recorded answers appear below.
Cc1cccc(CNC2=Nc3cc(Cl)c(Cl)cc3NC23CCOCC3)c1: < 100 nM
Clc1ccccc1CNC1=Nc2ccccc2NC12CCCCC2: < 500 nM
Fc1ccc(CNC2=Nc3cc(Cl)c(Cl)cc3NC23CCCCC3)c(F)c1: < 50 nM
Cc1ccccc1CNC1=Nc2ccccc2NC12CCNCC2: < 20 nM

--- query ---
*Q* Please indicate recorded IC50 of `FC(F)(F)c1cccc(CNC2=Nc3ccccc3NC23CCCCCC3)c1` measured with human neuroblastoma cell line SH-SY5Y.
*A* < 50 nM

----------
Test system: Pfa1 cells
Assay: Inhibition of non-apoptotic cell death after tamoxifen-induced GPx4 knockout in a recombinant cell line (Example B.4)
Assay type: cell-based
Settings: Mus musculus, read-out: Pfa1/TAM IC50
pIC50: −log10 of the molar value.
test-readout: pIC50

*Q* Please indicate recorded pIC50 of Clc1ccccc1CNC1=Nc2ccccc2NC12CCCCCC2 [C-205] measured with Pfa1 cells.
*A* > 6.70

----------
System: human neuroblastoma cell line SH-SY5Y
Assay: Inhibition of BSO-induced non-apoptotic cell death (Example B.1)
Assay type: cell-based
Settings: SH-SY5Y cells, 50 μM BSO, 72 hours, read-out: SH-SY5Y/BSO IC50
This section presents compounds with their documented IC50 values.

Clc1ccc(CNC2=Nc3ccccc3NC23CCOCC3)cc1: < 500 nM
Cc1cc2c(cc1C)NC1(CCCCCC1)C(NCc1cccc(Cl)c1)=N2: < 50 nM
FC(F)(F)c1cccc(CNC2=Nc3cc(Cl)c(Cl)cc3NC23CCCCCC3)c1: < 50 nM
Fc1cccc(F)c1CNC1=Nc2ccccc2NC12CCCCCC2: < 100 nM
CN1CCC2(CC1)Nc1cc(Cl)c(Cl)cc1N=C2NCc1ccccc1: < 10 nM
c1ccc(C(CNC2=Nc3ccccc3NC23CCNCC3)c2ccccc2)cc1: < 50 nM

*Q* Please indicate recorded IC50 of `Clc1cccc(CNC2=Nc3ccccc3NC23CCNCC3)c1` measured with human neuroblastoma cell line SH-SY5Y.
*A* < 20 nM

*Q* Please indicate recorded IC50 of `Clc1cccc(CNC2=Nc3cc(Cl)c(Cl)cc3NC23CCOCC3)c1` measured with human neuroblastoma cell line SH-SY5Y.
*A* < 50 nM

*Q* Please indicate recorded IC50 of `CN1CCC2(CC1)Nc1ccccc1N=C2NCc1cccc(Cl)c1` measured with human neuroblastoma cell line SH-SY5Y.
*A* < 50 nM

*Q* Please indicate recorded IC50 of `FC(F)(F)c1cccc(CNC2=Nc3ccccc3NC23CCNCC3)c1` measured with human neuroblastoma cell line SH-SY5Y.
*A* < 20 nM

*Q* Please indicate recorded IC50 of `Clc1cccc(CNC2=Nc3cc4c(cc3NC23CCNCC3)OCCO4)c1` measured with human neuroblastoma cell line SH-SY5Y.
*A* < 500 nM
